src = PubChem BioAssay (NCI)

# Tested on: SF-268 CNS
# assay-remarks: NCI-60 one-dose screen, 48 h (100 = growth as untreated, 0 = no growth, -100 = all killed)
# measurement-context: 10 µM unless noted
Compounds without any hit were thinned out: in the full panel of roughly 83,000, 20% have a hit.
Give met when the value for growth is at least 80%. Give not met when it is less.

>>> class("Cc1ccc(O)c(NC(=O)c2cccc(Nc3ccnc(C(F)(F)F)c3)c2)c1")
"not met"
>>> class("C=CC(CC(c1ccccc1)(c1ccccc1)c1ccccc1)N(CC)CC (stereo not drawn)")
"not met"
>>> class("CCOC(=O)C/C(=N\\Nc1cc(=O)[nH]c2ccc(C)cc12)C(=O)OCC")
"met"
>>> class("Cn1c2ccccc2c2c3c(c4c5cc(Br)ccc5n(C)c4c21)C(=O)N(O)C3=O")
"not met"
>>> class("COC1C(O)CC(OC2CC(OC3CC(O[C@@H]4C(=O)c5c(cc6cc(OC7CC(OC8CC(O)C(O)C(C)O8)C(O)C(C)O7)c(C)c(O)c6c5O)CC4[C@H](OC)[C@@H](O)C(C)=O)OC(C)C3O)OC(C)C2O)OC1C (stereo partly drawn)")
"not met"
>>> class("CC12OC(CC(O)C1O)n1c3ccccc3c3c4c(c5c6ccccc6n2c5c31)C(=O)N(CCN1CCCC1)C4=O (stereo not drawn)")
"not met"
>>> class("O=CCCCOCc1ccccc1")
"met"
>>> class("Cc1c(O)cc(-c2cnc(N/N=C/c3ccccc3)s2)c(O)c1C")
"met"
>>> class("O=c1ccc2ccc(OCCN3CCCCC3)cc2o1")
"met"
>>> class("Cc1ccc(NC(=O)c2sc3nc(C)c(C(O)c4ccccc4)cc3c2N)cc1 (stereo not drawn)")
"not met"
>>> class("CCN(CC)CCCNc1cc(OC)c(OC)c2cccnc12")
"not met"
>>> class("COc1ccc(/C=C2\\c3cc(OC)c(OC)c(OC)c3CC[C@@H]2O)cc1F")
"not met"
>>> class("CCN1C(=O)N(CC)C2C1NN=c1s/c(=C\\c3ccc(OC)cc3)c(=O)n12 (stereo not drawn)")
"not met"
>>> class("O=S(=O)(Nc1cc(Sc2nc3ccccc3s2)c(O)c2ccccc12)c1ccc2ccccc2c1")
"met"
>>> class("O=c1c2ccccc2n(C[C@H]2CO2)c2ccccc12")
"not met"
>>> class("N[C@@H]1CCC[C@H]1NCCCCN1C(=O)c2cccc3cc([N+](=O)[O-])cc(c23)C1=O")
"not met"
>>> class("Cc1nn(C)c2ncnc(N/N=C/c3cccc(O)c3O)c12")
"not met"
>>> class("Nc1nc2ccccc2c2c(=O)c3cc(Cl)ccc3sc12")
"not met"
>>> class("COc1ccc(N=C2NN=C(c3c[nH]c4ccccc34)CS2)cc1OC")
"not met"
>>> class("CCOC(=O)C1=C(CC(O)c2ccc(OC)cc2OC)NC(=O)NC1c1ccccc1 (stereo not drawn)")
"met"
>>> class("Cc1ccc(S(=O)(=O)OC[C@]23CCC(C)(C)C[C@H]2C2=CC[C@@H]4[C@@]5(C)CCCNC(C)(C)[C@@H]5CC[C@@]4(C)[C@]2(C)CC3)cc1")
"not met"
>>> class("Brc1ccc(Nc2nc(Nc3cnc4ccccc4c3)c3[nH]cnc3n2)cc1")
"not met"
>>> class("CC(C)(C)c1ccc(S(=O)(=O)Oc2ccc(-c3sc4cc(OS(=O)(=O)c5ccc(C(C)(C)C)cc5)ccc4c3C(=O)c3ccc(OCCN4CCCCC4)cc3)cc2)cc1")
"met"
>>> class("c1cc(OCCCCCOc2cccc(-c3nc4ccccc4[nH]3)c2)cc(-c2nc3ccccc3[nH]2)c1")
"not met"
>>> class("Cc1cccc(-c2nc(C(C)C)sc2-c2ccnc(NCCCNS(=O)(=O)c3ccc(Cl)cc3)c2)c1")
"not met"
>>> class("COc1ccc(CNc2ccc3nc(NC(=O)CN4CCCCCC4)sc3c2)cc1")
"met"
>>> class("COc1ccc(N/N=C/c2cn(-c3ccc(C(=O)O)cc3)nc2-c2cc3ccccc3oc2=O)cc1")
"not met"
>>> class("COc1nc(/C=C\\Nc2ccc3c(c2)OCCOCCOCCOCCO3)nc(OC)n1")
"met"
>>> class("CCN(CC)CCOc1ccc(/C(=C(\\C)Cc2ccc(OC)cc2)c2ccc(OC(=O)NCc3ccccc3)cc2)cc1")
"not met"
>>> class("Nc1ccc(Br)cc1C(F)(F)F")
"met"
>>> class("CCOC(=O)/C=C1\\S/C(=N\\Nc2cc(=O)[nH]c3ccc(Br)cc23)N(c2ccccc2)C1=O")
"met"
>>> class("O=C(/C=C/c1ccccc1)N(C1CCCCC1)C1CCCCC1")
"met"
>>> class("N#Cc1c(-c2ccccc2)nc2c(c(-c3ccc(Cl)cc3)nn2-c2ccccc2)c1-c1ccc([N+](=O)[O-])cc1")
"met"
>>> class("N#C/C(=C\\c1ccc(-c2cccc(Cl)c2)o1)C(=O)Nc1ncc(Cc2ccc(Cl)cc2)s1")
"not met"
>>> class("N#Cc1nn(-c2cc(=O)[nH]c3ccc(Br)cc23)c(N)c1C#N")
"met"
>>> class("O=S(=O)(N=C1C(Cl)=C(Cl)C(=NS(=O)(=O)c2ccccc2)C(Cl)=C1Cl)c1ccccc1")
"met"
